# ASSAY_NOTES: Sensory evaluation of aqueous solution I containing (E)-2-nonenal 1 ppb: off-flavor intensity and masking component intensity
# REPORTED_CONDITIONS: 1 ppm added, (E)-2-nonenal 1 ppb, average score 0-4
# Method: In ion-exchanged water, each degradation component was added to achieve the concentrations listed in Table 1, and aqueous solutions I to VI containing these degradation components were prepared. […] Also, the intensity of the masking components (impact on the flavor of the food and/or beverage itself) was absolutely evaluated according to the following evaluation criteria. […]

COMPOUND	Off-Flavor Intensity
CCCC(=O)C(C)=O	1.6 points
C=C(C)[C@@H]1CCC2=CC(=O)C[C@@H](C)[C@]2(C)C1	1.8 points
CCCCCCCC/C=C\CCCCCCCC(=O)O	1.8 points
CC(=O)/C=C/C1=C(C)CCCC1(C)C	0.5 points
CCC(=O)/C=C/C1C(C)=CCCC1(C)C (stereo not shown)	0.3 points
CC(=O)/C=C/C1C(C)=CCCC1(C)C (stereo not shown)	0.6 points
C=CC(C)(CCC=C(C)C)OC(=O)CCC (stereo not shown) [Linalyl Butyrate, linalyl butyrate]	1.3 points
